B1: TSN (parent)
chain: AFVVYLETETLVTREAVTEILGIE

Variants of: B1
Test: protein stability index of a GFP-peptide fusion (GPS, HEK-293T) (PSI 1-6); higher = more stable;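 further: lentivirally expressed fusions sorted by FACS into six bins by GFP to DsRed ratio, PSI derived from sequencing read proportions per bin multiplied by bin number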
Details: c terminus: a fixed tail appended
# reported protein stability index; entries follow
# answer = number (no unit)

protein stability index for V12Y ? 2.53

protein stability index for L6D ? 2

Continuing:
protein stability index for R14D ? 2.33
